B1: Myc-SAV1 SARAH (residues 321–383) wild type [modified: 35S-methionine labelled; 35S-methionine labelled] [human] / GST-MST2 SARAH (residues 430–491) [human] (parent complex)
chain 1: ILKWELFQLADLDTYQGMLKLLFMKELEQIVKMYEAYRQALLTELENRKQRQQWYAQQHGKNF
chain 2: KVPQDGDFDFLKNLSLEELQMRLKALDPMMEREIEELRQRYTAKRQPILDAMDAKKRRQQNF

variants of: B1; assay: GST pull-down of in vitro translated 35S-labeled Myc-SAV1 SARAH, quantified; read off a plot
Consider the following variants; for each one, report its ratio to parent.

Consider the variant chain 1 Y37A and give its measured ratio to parent.
~0.04

Any idea what ratio to parent was measured for chain 1 L27A ?
~0.7

# lookup: ratio to parent of chain 1 L45A
~0.06

Which ratio to parent is reported for this variant? chain 1 Y34A
~0.36

Given chain 1 T14A , state its recorded ratio to parent.
~0.9

Given chain 1 L41A , state its recorded ratio to parent.
~0.01

Recorded ratio to parent of chain 1 R48A , please.
~0.03

Report ratio to parent for chain 1 I30A please.
~0.04

Find the recorded ratio to parent belonging to chain 1 E26A and report it.
~0.02

Using the record for chain 1 Q16A , report its ratio to parent.
~0.4

If you can, please state the reported ratio to parent value of chain 1 L42A .
~0.2

Look at this variant and give its reported ratio to parent. chain 1 R38A
~0.03

Please give the measured ratio to parent for this variant: chain 1 V31A
~0.53
